These entries and their values trace back to patent US20210032312A1.

# system_under_test: T1, human CD8 alpha (CD8A) on primary human CD8+ T cells (human, UniProt P01732 22-235)
# T1 construct: whole, on cells; also called hCD8A
# procedure_details: flow cytometry, human CD8+ T cells, 2 uM FN3
reported_endpoint: Human T-cell Binding 2 uM (MFI)

Reference set (2 entries):
1. P283BR9P1363_B6 (designed binder, FN3 domain) LPAPKNLVVSRVTEDSARLSWQRHSDAHPLFDSFLIQYQESEKVGEAIVLTVPGSERSYDLTGLKPGTEYTVSIYGVDVKWEGNRPVASNPLSAIFTT    14500
2. P282ER9P1360_H2 (designed binder, FN3 domain) LPAPKNLVVSRVTEDSARLSWTAPDAAFDSFSIAYVEAELVGEAIQLVVPGSERSYDLTGLKPGTEYWVVILGVKGGNPSNPLGASFTTT    15200

1 = P282AR9P1356_H1 (designed binder, FN3 domain) LPAPKNLVVSRVTEDSARLSWIPNPSSFDSFLIQYQESEKVGEAIVLTVPGSERSYDLTGLKPGTEYTVSIYGVDVVFDPVGFPSHSNPLSAIFTT
2 = P282ER9P1360_G10 (designed binder, FN3 domain) LPAPKNLVVSRVTEDSARLSWTAPDAAFDSFAIWYVEQHPFGEAIPLFVPGSERSYDLTGLKPGTEYTVGIRGVKGGNFSTPLIAHFTT
Incoming: Higher Human T-cell Binding 2 uM (MFI) between 1 and 2 ? Mark your answer with the label of the selected entry.
Outgoing: 2
(2: 27000 MFI, 1: 14700 MFI)
